biological target: UGT2B7H(268) (Homo sapiens, UniProt P16662, Y268H)
measure_name: Km (µM)
# number only, unit µM dropped from output

Please look at this molecule and report its Km: CC(C)NC[C@H](O)COc1cccc2ccccc12 72

###

molecular target: UGT2B7Y(268) (Homo sapiens, UniProt P16662); assay: in vitro
measure_name: Km (µM)
# number only, unit µM dropped from output

Please look at this compound and report its Km: COc1ccc2c3c1O[C@H]1[C@@H](O)C=C[C@H]4[C@@H](C2)N(C)CC[C@@]341 [codeine] 230

###

Molecular target: UGT2B7H(268) (Homo sapiens, UniProt P16662, Y268H)
Sequence (P16662 24-529 Y268H): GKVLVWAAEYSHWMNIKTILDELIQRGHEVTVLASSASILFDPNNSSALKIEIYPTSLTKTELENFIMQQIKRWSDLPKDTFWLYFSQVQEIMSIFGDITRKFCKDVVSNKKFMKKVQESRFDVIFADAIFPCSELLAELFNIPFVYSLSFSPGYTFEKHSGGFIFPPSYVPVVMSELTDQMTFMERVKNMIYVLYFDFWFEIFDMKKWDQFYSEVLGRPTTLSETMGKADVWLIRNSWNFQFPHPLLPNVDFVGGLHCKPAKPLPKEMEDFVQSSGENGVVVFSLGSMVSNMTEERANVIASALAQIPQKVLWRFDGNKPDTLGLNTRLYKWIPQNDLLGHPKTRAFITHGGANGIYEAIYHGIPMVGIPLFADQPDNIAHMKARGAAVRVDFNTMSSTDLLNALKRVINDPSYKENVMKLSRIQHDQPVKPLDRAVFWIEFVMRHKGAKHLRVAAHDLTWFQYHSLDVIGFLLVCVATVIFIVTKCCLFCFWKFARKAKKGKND
Assay: in vitro
measure_name: Km (µM)
# number only, unit µM dropped from output

Please look at this molecule and report its Km: COc1ccc2c3c1O[C@H]1[C@@H](O)C=C[C@H]4[C@@H](C2)N(C)CC[C@@]341 791

###

Target: UGT2B7Y(268) (Homo sapiens)
Sequence (P16662 24-529): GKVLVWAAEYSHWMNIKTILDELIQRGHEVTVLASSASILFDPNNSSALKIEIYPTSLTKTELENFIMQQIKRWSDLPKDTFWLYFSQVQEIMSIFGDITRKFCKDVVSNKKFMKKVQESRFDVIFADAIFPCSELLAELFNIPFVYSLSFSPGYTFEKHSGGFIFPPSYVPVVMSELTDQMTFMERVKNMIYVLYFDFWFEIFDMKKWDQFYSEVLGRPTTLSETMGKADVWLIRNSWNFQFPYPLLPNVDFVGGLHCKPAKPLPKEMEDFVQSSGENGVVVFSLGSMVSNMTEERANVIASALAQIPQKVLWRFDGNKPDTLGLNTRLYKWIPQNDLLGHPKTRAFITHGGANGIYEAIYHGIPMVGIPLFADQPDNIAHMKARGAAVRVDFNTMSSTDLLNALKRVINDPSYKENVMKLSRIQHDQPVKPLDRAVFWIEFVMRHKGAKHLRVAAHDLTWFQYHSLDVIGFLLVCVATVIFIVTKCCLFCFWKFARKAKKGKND
Assay: Kinetics of glucuronidation, membrane preparations of HK293 cells stably expressing UGT2B7Y(268)
measure_name: Vmax

Please look at this compound and report its Vmax: CC(C)NC[C@@H](O)COc1cccc2ccccc12 96 pmol/min/mg protein

Please look at this compound and report its Vmax: COc1ccc2c3c1O[C@H]1[C@@H](O)C=C[C@H]4[C@@H](C2)N(C)CC[C@@]341 190, 40 pmol/min/mg protein

Please look at this compound and report its Vmax: O=C1CC[C@@]2(O)[C@H]3Cc4ccc(O)c5c4[C@@]2(CCN3CC2CC2)[C@H]1O5 [naltrexone] 840, 1130 pmol/min/mg protein

Please look at this compound and report its Vmax: CC(C)NC[C@H](O)COc1cccc2ccccc12 70, 140 pmol/min/mg protein

###

measure_name: Km
Express your answer as a number followed by its unit.

Retrieve Km on UGT2B7Y(268) (Homo sapiens, UniProt P16662); query CC(C)NC[C@@H](O)COc1cccc2ccccc12 180 µM
